biological target: ERCC1/XPA protein-protein interaction (MBP-ERCC1 central domain / fluorescein-labeled XPA67-80 peptide) (Homo sapiens); assay: Fluorescence polarization
Sequence (P07992 96-214): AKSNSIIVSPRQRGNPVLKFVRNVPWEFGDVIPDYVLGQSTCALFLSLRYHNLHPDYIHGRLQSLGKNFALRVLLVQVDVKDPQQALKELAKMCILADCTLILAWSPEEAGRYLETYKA
Property Name: pEC50
Numbers only, as −log10 of the molar value.

Kindly note the recorded pEC50 for Cc1cc(C)c(C#N)c(SCC(O)c2cccc([N+](=O)[O-])c2)n1 (stereo not shown) , which is 4.68
